molecular target: HCV NS3/NS4a serine protease (Hepatitis C virus genotype 1b); construct: amino terminus of the NS3 protease domain (amino acids 3-181) with a tetrapeptide linker; made in house; host or cells: E. coli; assay: Spectrophotometric assay for HCV protease inhibitory activity (chromogenic ester substrates); type: biochemical, hepatitis C virus (strain 1b); conditions: Ki, Table 1; single chain NS4A21-32-GSGS-NS3 3-181 protease, 30° C., pH 6.5
experimentalEndpoint: Ki (nM)

compound: CN(C[C@@H](NC(=O)N[C@H](C(=O)N1C[C@H]2[C@@H](C1C(=O)N[C@@H](CC(F)F)C(=O)NCCc1ccc(C(N)=O)cc1)C2(C)C)C(C)(C)C)C(C)(C)C)S(C)(=O)=O (stereo partly drawn)
recordedNumber: 27

compound: COC(=O)c1ccc(CCNC(=O)[C@H](CC(F)F)NC(=O)[C@@H]2C3C(CN2C(=O)[C@@H](NC(=O)N[C@H](CN(C)S(C)(=O)=O)C(C)(C)C)C2CCCCC2)C3(C)C)cc1 (stereo partly drawn)
recordedNumber: 11

compound: CC(C)[C@@H](CNS(=O)(=O)c1ccccc1)NC(=O)N[C@H](C(=O)N1C[C@H]2[C@@H]([C@H]1C(=O)N[C@@H](CC(F)F)C(=O)NCCc1ccc(C(=O)O)cc1)C2(C)C)C(C)(C)C
recordedNumber: 90

---

Listed here are compounds together with their documented Ki.
target: HCV NS3/NS4a serine protease (Hepatitis C virus genotype 1b, UniProt P26663); construct: amino terminus of the NS3 protease domain (amino acids 3-181) with a tetrapeptide linker; made in house; host or cells: E. coli; test: Spectrophotometric assay for HCV protease inhibitory activity (chromogenic ester substrates); type: biochemical, hepatitis C virus (strain 1b); conditions: Ki, Table 3; rating; single chain NS4A21-32-GSGS-NS3 3-181 protease, 30° C., pH 6.5
Sequence (P26663 1013-1207, looked up, natural form): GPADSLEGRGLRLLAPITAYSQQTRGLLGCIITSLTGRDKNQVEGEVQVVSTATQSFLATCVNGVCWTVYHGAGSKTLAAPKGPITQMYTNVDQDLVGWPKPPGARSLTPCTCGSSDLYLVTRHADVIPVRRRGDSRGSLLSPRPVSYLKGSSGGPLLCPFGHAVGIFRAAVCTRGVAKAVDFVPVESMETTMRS

smilesCode: CN(C[C@@H](NC(=O)N[C@H](C(=O)N1C[C@H]2[C@@H]([C@H]1C(=O)N[C@@H](CC(F)F)C(=O)N1Cc3ccccc3C1)C2(C)C)C(C)(C)C)C(C)(C)C)S(C)(=O)=O
Ki: > 500 nM

smilesCode: COc1cc(CCNC(=O)[C@H](CC(F)F)NC(=O)[C@@H]2[C@@H]3[C@H](CN2C(=O)[C@@H](NC(=O)N[C@H](CN(C)S(C)(=O)=O)C(C)(C)C)C(C)(C)C)C3(C)C)ccc1O
Ki: < 100 nM

smilesCode: CN(C[C@@H](NC(=O)N[C@H](C(=O)N1C[C@H]2[C@@H]([C@H]1C(=O)N[C@@H](CC(F)F)C(=O)NCCc1cccc(C(F)(F)F)c1)C2(C)C)C(C)(C)C)C(C)(C)C)S(C)(=O)=O
Ki: < 100 nM

---

Listed here are molecules together with their documented pKi.
Biological target: HCV NS3/NS4a serine protease (Hepatitis C virus genotype 1b)
Construct: amino terminus of the NS3 protease domain (amino acids 3-181) with a tetrapeptide linker; made in house; host or cells: E. coli
Assay: Spectrophotometric assay for HCV protease inhibitory activity (chromogenic ester substrates)
Assay type: biochemical, hepatitis C virus (strain 1b)
Settings: Ki, Table 3; rating; single chain NS4A21-32-GSGS-NS3 3-181 protease, 30° C., pH 6.5
Description: Spectrophotometric Assay: Spectrophotometric assays for the HCV serine protease were performed on the inventive compounds by following the procedure described by R. Zhang et al., Analytical Biochemistry, 270 (1999) 268-275, the disclosure of which is incorporated herein by reference. […] Protein concentrations were determined by the Biorad dye method using recombinant HCV protease standards previously quantified by amino acid analysis. […]
pKi: −log10 of the molar value. *1 amine or outer side, *2 acyl side, *3 side chain or, on linkers, in order; H or OH if unused. Where a SMILES comes first, the peptide text is derived from it. [ ]: non-standard residue; d: D form. The star is where a group is joined. Pro(3R,4S-CMe2) = CC1(C)[C@@H]2[C@@H](C(=O)O)NC[C@@H]21; X1 = CN(C[C@@H](N*)C(C)(C)C)S(C)(=O)=O; Abu(4,4-F2) = N[C@@H](CC(F)F)C(=O)O; Phe(ol) = N[C@H](CO)Cc1ccccc1; Tle = CC(C)(C)[C@H](N)C(=O)O; CO = O=C([*:1])[*:2]

molecule: COc1ccc(CCNC(=O)[C@H](CC(F)F)NC(=O)[C@@H]2[C@@H]3[C@H](CN2C(=O)[C@@H](NC(=O)N[C@H](CN(C)S(C)(=O)=O)C(C)(C)C)C(C)(C)C)C3(C)C)cc1OC
pKi: > 7.00
--
molecule: COc1ccc(CCNC(=O)[C@H](CC(F)F)NC(=O)[C@@H]2[C@@H]3[C@H](CN2C(=O)[C@@H](NC(=O)N[C@H](CN(C)S(C)(=O)=O)C(C)(C)C)C(C)(C)C)C3(C)C)cc1
pKi: > 7.00
--
molecule: CN(C[C@@H](NC(=O)N[C@H](C(=O)N1C[C@H]2[C@@H]([C@H]1C(=O)N[C@@H](CC(F)F)C(=O)N[C@@H]1C[C@@H]1c1ccccc1)C2(C)C)C(C)(C)C)C(C)(C)C)S(C)(=O)=O
pKi: > 7.00
--
molecule: CC1(C)CC(=O)N(C[C@@H](NC(=O)N[C@H](C(=O)N2C[C@H]3[C@@H]([C@H]2C(=O)N[C@@H](CC(F)F)C(=O)NCCc2c(F)cccc2F)C3(C)C)C(C)(C)C)C(C)(C)C)C(=O)C1
pKi: > 7.00
--
molecule: CN(C[C@@H](NC(=O)N[C@H](C(=O)N1C[C@H]2[C@@H]([C@H]1C(=O)N[C@@H](CC(F)F)C(=O)NCCc1ccc3c(c1)OCO3)C2(C)C)C(C)(C)C)C(C)(C)C)S(C)(=O)=O
pKi: > 7.00
--
molecule: CN(C[C@@H](NC(=O)N[C@H](C(=O)N1C[C@H]2[C@@H]([C@H]1C(=O)N[C@@H](CC(F)F)C(=O)N[C@H]1CCCC[C@@H]1OCc1ccccc1)C2(C)C)C(C)(C)C)C(C)(C)C)S(C)(=O)=O
pKi: < 6.30
--
molecule: CN(C[C@@H](NC(=O)N[C@H](C(=O)N1C[C@H]2[C@@H]([C@H]1C(=O)N[C@@H](CC(F)F)C(=O)NCC1CCCO1)C2(C)C)C(C)(C)C)C(C)(C)C)S(C)(=O)=O (stereo partly drawn)
pKi: < 6.30
--
molecule: CN(C[C@@H](NC(=O)N[C@H](C(=O)N1C[C@H]2[C@@H]([C@H]1C(=O)N[C@@H](CC(F)F)C(=O)N[C@H](CO)Cc1ccccc1)C2(C)C)C(C)(C)C)C(C)(C)C)S(C)(=O)=O [Example 249] ({X1-CO}-[Tle][Pro(3R,4S-CMe2)][Abu(4,4-F2)][Phe(ol)])
pKi: < 6.30
--
molecule: CCOc1cc(CCNC(=O)[C@H](CC(F)F)NC(=O)[C@@H]2[C@@H]3[C@H](CN2C(=O)[C@@H](NC(=O)N[C@H](CN(C)S(C)(=O)=O)C(C)(C)C)C(C)(C)C)C3(C)C)ccc1OC
pKi: > 7.00
